# key: entry, value: self-cleavage
B1: OR4K15 (parent)
chain: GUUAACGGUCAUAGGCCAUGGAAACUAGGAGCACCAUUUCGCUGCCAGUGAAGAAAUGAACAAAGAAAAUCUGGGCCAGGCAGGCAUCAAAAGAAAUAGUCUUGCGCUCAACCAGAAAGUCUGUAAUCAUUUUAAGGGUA

- Variants of: B1
- EXPERIMENT_DESCRIPTION: self-cleavage, relative activity (ratio to wild type); higher = more cleavage; in vitro, sequencing; the parent is a self-cleaving ribozyme
// response body must contain only the number

SEQUENCE	METRIC	RESULT_VALUE
GUUAACGGUCAUUGGCCAUGGAAACUAGGAGCACCAUUUCGCUGCCAGUGAAGAAAUGAACAAAGAAAAUCUGGGCCAGGCAGGCAUCAAAAGAAAUAGUCUUGCGCUCAACCAGAAAGUCAGUAAUCAUUUUAAGGGUA	self-cleavage	1.5
GUUAACGGUCAUAGGCCAUGGAAACUAGGAGCACCAUUUCGCUGCCAGAGAAGAAAUGAACAAAGAAAAUCUGGGCCAAGCAGGCAUCAAAAGAAAUAGUCUUGCGCUCAACCAGAAAGUCUGUAAUCAUUUUAAGGGUA	self-cleavage	0.12
GUUAACGGUCAUAGGCCAUGGAAACUAGGGGCACCAUUUCGCUGCCAGUGAAGAAAUGAACAAAGGAAAUCUGGGCCAGGCAGGCAUCAAAAGAAAUAGUCUUGCGCUCAACCAGAAAGUCUGUAAUCAUUUUAAGGGUA	self-cleavage	1.21
GUUAACGGUCAUAGGCCAUGGAAACUAGGAGCACCACUUCGCUGCCAGUGAAGAAAUGAACAAAGAAAACCUGGGCCAGGCAGGCAUCAAAAGAAAUAGUCUUGCGCUCAACCAGAAAGUCUGUAAUCAUUUUAAGGGUA	self-cleavage	0.2

Q: Query (variant): GUUAACGGUCAUAGGCCAUGGAAACUAGGAGCAACAUUUCGCUGCCAGUGAAGAAAUGAACAAAGAAAAUCUGGGCCAGGCAGGCAUCAAAAGAAAUAGUCUUGCGCUCAACCAGAAAGUCCGUAAUCAUUUUAAGGGUA ; field requested: self-cleavage
Ans: 0.77

Q: Bench note: what self-cleavage did GUUAACGGUCAUAGGCUAUGGAAACUAGGAGCACCAUUUCGCUGCCAGUGAAGAAAUGAACAAAGAAAAUCUGGGCCAGGCAGGCAUCAAAAGAAAUAGUCUUGCGCUCUACCAGAAAGUCUGUAAUCAUUUUAAGGGUA show?
Ans: 1.55

Q: Query: self-cleavage; subject: GUUAACGGUCAUAGGCCAUGGAAACUAGGAGCACCAUUUCGCUGCCAGUGAAGAAAUGAACAAAGAAAAUCUGGGCCAGGCAGGCUUCAAAAGAAAUGGUCUUGCGCUCAACCAGAAAGUCUGUAAUCAUUUUAAGGGUA
Ans: 0.37

Q: I am curious: what self-cleavage value has been reported for GUUAACGGUCAUAGGCCAUGGAAACUAGGAGCACCAUUUCGCUGCCAGUGAAGAAAUGAACAAAGAAAAUCUGGGCCAGGCAGGCAUCAAAAGAAAUAGUCUCGCGCUCAACCAGAAAGUCUGUAAUCAUCUUAAGGGUA ?
Ans: 0.49

Q: What does the record list as self-cleavage for GUUAACGGUCAUAGGCCAUGGAAACUAGGAGCACCAUUUCGCUGCCAGUGAAGAAAUGAACAAAGGAAAUCUGGGCCAGGCAGGCAUCAAAAGAAAUAGUCUUGCGCUCAACCAGAAAGUCUGUAAACAUUUUAAGGGUA ?
Ans: 2.35

Q: Tell me the measured self-cleavage of GUUAACGGUCAUAGGCCAUGGAAACUAGGAGCACCAUUUCGCUGCCGGUGAAGAAAUGAACAAAGAAAAUCUGGGCCAGGCAGGCAUCAAAAGAAAUAGUCUUGCGCUCAACCAGAAAGUCUGUGAUCAUUUUAAGGGUA , please.
Ans: 0.28

Q: What value of self-cleavage has been recorded for this entry: GUUAAUGGUCAUAGGCCAUGGAAACUAGGAGCACCAUUUCGCCGCCAGUGAAGAAAUGAACAAAGAAAAUCUGGGCCAGGCAGGCAUCAAAAGAAAUAGUCUUGCGCUCAACCAGAAAGUCUGUAAUCAUUUUAAGGGUA
Ans: 1.58
